# System: HOP-62 multicell spheroids with HUVEC/MSC, viability
# TEST SUMMARY: Anticancer human tumor HOP-62 cell line growth inhibition [KRAS2];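 also: viability read after a week of compound exposure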
# CONDITION CONTEXT: second compound 3.16 µM; first compound 0.000316 µM; stronger effect = lower value
Mark Condition met only for viability, T/C values smaller than 5%; exact matches and larger values are Condition not met.

| COMPOUND | ASSAYED SYSTEM | CLASSIFICATION |
| --- | --- | --- |
| Cn1ncnc1[C@H]1c2n[nH]c(=O)c3cc(F)cc(c23)N[C@@H]1c1ccc(F)cc1 + C=CC(=O)N1CCN(c2nc(=O)n(-c3c(C)ccnc3C(C)C)c3nc(-c4c(O)cccc4F)c(F)cc23)C(C)C1 | HOP-62 multicell spheroids with HUVEC/MSC, viability | Condition not met |
| CN(C)C/C=C/C(=O)Nc1cc2c(Nc3ccc(F)c(Cl)c3)ncnc2cc1O[C@H]1CCOC1 + CNCc1ccccc1-c1csc(C(C)Nc2nc(C)nc3cc(OC)c(OC)cc23)c1 | HOP-62 multicell spheroids with HUVEC/MSC, viability | Condition not met |
| CC(=O)Nc1cccc(-n2c(=O)n(C3CC3)c(=O)c3c(Nc4ccc(I)cc4F)n(C)c(=O)c(C)c32)c1 + CC1OCC2(CCN(c3cnc(Sc4ccnc(N)c4Cl)c(N)n3)CC2)C1N | HOP-62 multicell spheroids with HUVEC/MSC, viability | Condition not met |
| CC(C)n1nc(-c2ccc3oc(N)nc3c2)c2c(N)ncnc21 + CNCc1ccccc1-c1csc(C(C)Nc2nc(C)nc3cc(OC)c(OC)cc23)c1 | HOP-62 multicell spheroids with HUVEC/MSC, viability | Condition met |

====

Each item that follows carries a reported IC50.
# System: HOP-62 multicell spheroids with HUVEC/MSC, viability
# TEST SUMMARY: Anticancer human tumor HOP-62 cell line growth inhibition [KRAS2];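 also: viability read after a week of compound exposure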
# CONDITION CONTEXT: curve of first compound; second compound 0.316 µM

| COMPOUND | ASSAYED SYSTEM | IC50 |
| --- | --- | --- |
| CCN1CCN(Cc2ccc(Nc3ncc(F)c(-c4cc(F)c5nc(C)n(C(C)C)c5c4)n3)nc2)CC1 + CNCc1ccccc1-c1csc(C(C)Nc2nc(C)nc3cc(OC)c(OC)cc23)c1 | HOP-62 multicell spheroids with HUVEC/MSC, viability | > 1000 nM |
| CN(C)C/C=C/C(=O)Nc1cc2c(Nc3ccc(F)c(Cl)c3)ncnc2cc1O[C@H]1CCOC1 + CNCc1ccccc1-c1csc(C(C)Nc2nc(C)nc3cc(OC)c(OC)cc23)c1 | HOP-62 multicell spheroids with HUVEC/MSC, viability | > 100 nM |
| COc1cc(Nc2ncc3c(n2)-c2ccc(Cl)cc2C(c2c(F)cccc2OC)=NC3)ccc1C(=O)O + C=CC(=O)N1CCN(c2nc(=O)n(-c3c(C)ccnc3C(C)C)c3nc(-c4c(O)cccc4F)c(F)cc23)C(C)C1 | HOP-62 multicell spheroids with HUVEC/MSC, viability | < 31.6 nM |
| CC(=O)OC12COC1CC(O)C1(C)C(=O)C(O)C3=C(C)C(OC(=O)C(O)C(NC(=O)OC(C)(C)C)c4ccccc4)CC(O)(C(OC(=O)c4ccccc4)C21)C3(C)C (centres undefined) + CNCc1ccccc1-c1csc(C(C)Nc2nc(C)nc3cc(OC)c(OC)cc23)c1 | HOP-62 multicell spheroids with HUVEC/MSC, viability | < 10 nM |
| COc1cc(Nc2ncc3c(n2)-c2ccc(Cl)cc2C(c2c(F)cccc2OC)=NC3)ccc1C(=O)O + C=CC(=O)N1CCN(c2nc(OCC3CCCN3C)nc3c2CCN(c2cccc4cccc(C)c24)C3)CC1CC#N | HOP-62 multicell spheroids with HUVEC/MSC, viability | < 31.6 nM |
| Cn1nccc1Nc1nccc(-c2cc3c(s2)C(C)(C)N(CCN2CCOCC2)C3=O)n1 + C=CC(=O)N1CCN(c2nc(OCC3CCCN3C)nc3c2CCN(c2cccc4cccc(C)c24)C3)CC1CC#N | HOP-62 multicell spheroids with HUVEC/MSC, viability | < 31.6 nM |
| CC(=O)OC12COC1CC(O)C1(C)C(=O)C(O)C3=C(C)C(OC(=O)C(O)C(NC(=O)OC(C)(C)C)c4ccccc4)CC(O)(C(OC(=O)c4ccccc4)C21)C3(C)C (centres undefined) + COc1cc2nc(C)nc(NC(C)c3cc(N)cc(C(F)(F)F)c3)c2cc1OC1CCOC1 | HOP-62 multicell spheroids with HUVEC/MSC, viability | < 10 nM |
| Cn1ncnc1[C@H]1c2n[nH]c(=O)c3cc(F)cc(c23)N[C@@H]1c1ccc(F)cc1 + COc1cc2nc(C)nc(NC(C)c3cc(N)cc(C(F)(F)F)c3)c2cc1OC1CCOC1 | HOP-62 multicell spheroids with HUVEC/MSC, viability | > 100 nM |
| Cn1ncnc1[C@H]1c2n[nH]c(=O)c3cc(F)cc(c23)N[C@@H]1c1ccc(F)cc1 + CNCc1ccccc1-c1csc(C(C)Nc2nc(C)nc3cc(OC)c(OC)cc23)c1 | HOP-62 multicell spheroids with HUVEC/MSC, viability | > 100 nM |
